tested on: HT-22; experiment: Cytotoxicity against mouse HT-22 cells assessed as reduction in cell viability at 10 uM; type: toxicity, cell-based; conditions: ht-22, 10 µM
REPORTED_METRIC: Activity

{"SMILES_RECORD": "COc1cc2c(cc1N1CCC3(CCOCC3)C1)C[C@@H](C(C)C)n1cc(C(=O)O)c(=O)cc1-2", "Activity": "Non-Toxic"}
{"SMILES_RECORD": "COc1cc2c(cc1OCCCN1CCC3(C1)OCCO3)C[C@@H](C(C)C)n1cc(C(=O)O)c(=O)cc1-2", "Activity": "Non-Toxic"}
{"SMILES_RECORD": "COc1cc2c(cc1N1CCOCC1)C[C@@H](C(C)C)n1cc(C(=O)O)c(=O)cc1-2", "Activity": "Non-Toxic"}
{"SMILES_RECORD": "COCCCOc1cc2c(cc1OC)-c1cc(=O)c(C(=O)O)cn1[C@H](C(C)C)C2", "Activity": "Non-Toxic"}

Attention now shifts to the item below.
Form field - read-out: Activity; system: HT-22; submitted item: COc1cc2c(cc1N1CCC3(C1)OCCO3)C[C@@H](C(C)C)n1cc(C(=O)O)c(=O)cc1-2
Non-Toxic

###

Please provide measured Cmax for the entries that follow.
assay: Cmax in mouse at 10 mg/kg, po administered as single dose; assay type: ADME, organism-based; settings: in vivo
Numbers only, in ng/mL.

{"SMILES_RECORD": "COc1cc2c(cc1N1CCOCC1)C[C@@H](C(C)C)n1cc(C(=O)O)c(=O)cc1-2", "REPORTED_METRIC": "Cmax", "MEASURE_UNIT": "ng/mL", "OBSERVED_MEASUREMENT": 7620}

Bench note: what Cmax did COCCCOc1cc2c(cc1OC)-c1cc(=O)c(C(=O)O)cn1[C@H](C(C)C)C2 show?
6630

###

experiment: MRT (0 to infinity) in mouse at 10 mg/kg, po administered as single dose; assay type: ADME, organism-based; conditions: in vivo
REPORTED_METRIC: MRT inf

{"SMILES_RECORD": "COCCCOc1cc2c(cc1OC)-c1cc(=O)c(C(=O)O)cn1[C@H](C(C)C)C2", "OBSERVED_MEASUREMENT": "1.66 h"}

Attention now shifts to the item below.
Bench note: what MRT inf did COc1cc2c(cc1N1CCOCC1)C[C@@H](C(C)C)n1cc(C(=O)O)c(=O)cc1-2 show?
2.69 h

###

test system: Hepatitis B virus; experiment: Antiviral activity against Hepatitis B virus assessed as inhibition of HbsAg level; format: functional, organism-based
REPORTED_METRIC: IC50 (nM)
Numbers only, in nM.

Examples with their reported IC50 follow.
{"MOLECULE": "COc1cc2c(cc1OCCCN1CCC3(C1)OCCO3)CC(C(C)C)n1cc(C(=O)O)c(=O)cc1-2 (stereo not drawn)", "IC50, nM": 33}
{"MOLECULE": "COc1cc2c(cc1OC[C@@H]1CCCO1)C[C@@H](C(C)C)n1cc(C(=O)O)c(=O)cc1-2", "IC50, nM": 0.6}

Attention now shifts to the item below.
Bench note: what IC50 did COc1cc2c(cc1N1CCC(C(=O)O)CC1)CC(C(C)C)n1cc(C(=O)O)c(=O)cc1-2 (stereo not drawn) show?
1240
